- Test system: Candida krusei
- procedureText: Antifungal broth microdilution MIC (50% growth inhibition) and MFC
- Assay type: cell-based
- testSettings: Pichia kudriavzevii, ATCC34135; C. krusei ATCC 34135; read-out: MIC
Task for the reader: assign each of the following compounds its reported MIC.
Write the answer as a number in mg/L, unit excluded.

Lookup: Need MIC, item Cc1nc(-c2ccc(-c3ccccc3)cc2)sc1-c1nnc(NCCN)o1 [Compound 7]
Found: 2

Lookup: Try this compound next: OC(Cn1cncn1)(Cn1cncn1)c1ccc(F)cc1F [Fluconazole, reference compound]
Found: 16

Lookup: Try this compound next: C[C@@H]1[C@H](O)[C@@H](C)/C=C/C=C/C=C/C=C/C=C/C=C/C=C/[C@H](O[C@@H]2O[C@H](C)[C@@H](O)[C@H](N)[C@@H]2O)C[C@@H]2O[C@](O)(C[C@@H](O)C[C@@H](O)[C@H](O)CC[C@@H](O)C[C@@H](O)CC(=O)O[C@H]1C)C[C@H](O)[C@H]2C(=O)O [Amphotericin B, reference compound]
Found: 2

Lookup: Try this compound next: CC[C@H](C)C[C@H](C)CCCCCCCCC(=O)N[C@H]1C[C@@H](O)[C@@H](NCCN)NC(=O)[C@@H]2[C@@H](O)CCN2C(=O)[C@H]([C@H](O)CCN)NC(=O)[C@H]([C@H](O)[C@@H](O)c2ccc(O)cc2)NC(=O)[C@@H]2C[C@@H](O)CN2C(=O)[C@H]([C@@H](C)O)NC1=O [Caspofungin]
Found: 0.5

Lookup: Try this compound next: Cc1nc(-c2ccc(-c3ccccc3)cc2)sc1-c1nnc(N[C@@H]2CCCC[C@@H]2N)o1 (relative stereo) [Compound 17]
Found: 1

###

- Test system: Candida parapsilosis
- procedureText: Antifungal broth microdilution MIC (50% growth inhibition)
- Type: cell-based
- testSettings: Lodderomyces parapsilosis, ATCC22019; C. parapsilosis ATCC 22019; read-out: MIC
- Description: Serial dilutions (from 128 μg/mL to 0.06 μg/mL) of the tested compounds and control drugs (fluconazole, itraconazole and amphotericin) (in triplicates), were screened against clinical isolates of Candida albicans, Candida auris, Candida glabrata, Candida parapsilosis, Candida tropicalis, Candida krusei, Cryptococcus neoformans, Cryptococcus gattii and Aspergillus fumigatus species using the broth microdilution method according to the Clinical and Laboratory Standards Institute guidelines. […]
reportedProperty: MIC (µg/mL)
Write the answer as a number in µg/mL, unit excluded.

Lookup: Need MIC, item C[C@@H]1[C@H](O)[C@@H](C)/C=C/C=C/C=C/C=C/C=C/C=C/C=C/[C@H](O[C@@H]2O[C@H](C)[C@@H](O)[C@H](N)[C@@H]2O)C[C@@H]2O[C@](O)(C[C@@H](O)C[C@@H](O)[C@H](O)CC[C@@H](O)C[C@@H](O)CC(=O)O[C@H]1C)C[C@H](O)[C@H]2C(=O)O [Amphotericin B, reference compound]
Found: 0.5

Lookup: Try this molecule next: Cc1nc(-c2ccc(-c3ccccc3)cc2)sc1-c1nnc(NCCN)o1
Found: 2

Lookup: Try this molecule next: CC[C@H](C)C[C@H](C)CCCCCCCCC(=O)N[C@H]1C[C@@H](O)[C@@H](NCCN)NC(=O)[C@@H]2[C@@H](O)CCN2C(=O)[C@H]([C@H](O)CCN)NC(=O)[C@H]([C@H](O)[C@@H](O)c2ccc(O)cc2)NC(=O)[C@@H]2C[C@@H](O)CN2C(=O)[C@H]([C@@H](C)O)NC1=O
Found: 0.5

Lookup: Try this molecule next: Cc1nc(-c2ccc(-c3ccccc3)cc2)sc1-c1nnc(N[C@@H]2CCCC[C@@H]2N)o1 (relative stereo)
Found: 1

Lookup: Try this molecule next: OC(Cn1cncn1)(Cn1cncn1)c1ccc(F)cc1F [Fluconazole, reference compound]
Found: 1

The reported measurements were obtained from paper PMC8568133.
